Biological target: T1, Aβ (1-42) peptide (human)
T1 construct: also called Aβ1-42 fibers; Aβ4
Test: SPR, kinetic fit, immobilized fibers;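 also: surface plasmon resonance on a Biacore chip bearing in vitro formed Aβ1-40 or Aβ1-42 fibers, KD taken as koff/kon by fitting time-resolved sensor responses, based on total Fab concentration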

| binder | value-unit | Kd |
| --- | --- | --- |
| MS-Roche #3.4H3×3.4L9 Fab (Fab, V domains shown, cross-cloned Fab) VH: QLVESGGGLVQPGGSLRLSCAASGFTFSSYAMSWVRQAPGKGLEWVSVISQTGRKIYYADSVKGRFTISRDNSKNTLYLQMNSLRAEDTAVYYCARLTHYARYYRYFDVWGQGTLVTVSS VL: DIVLTQSPATLSLSPGERATLSCRASRRIHVYYLAWYQQKPGQAPRLLIYGASSRATGVPARFSGSGSGTDFTLTISSLEPEDFATYYCQQTYDYPPTFGQGTKVEIKR | nM | 0.93 |
| MS-Roche #3.4H3×3.4L7 Fab (Fab, V domains shown, cross-cloned Fab) VH: QLVESGGGLVQPGGSLRLSCAASGFTFSSYAMSWVRQAPGKGLEWVSVISQTGRKIYYADSVKGRFTISRDNSKNTLYLQMNSLRAEDTAVYYCARLTHYARYYRYFDVWGQGTLVTVSS VL: DIVLTQSPATLSLSPGERATLSCRASQRLGRLYLAWYQQKPGQAPRLLIYGASSRATGVPARFSGSGSGTDFTLTISSLEPEDFATYYCQQTYDYPPTFGQGTKVEIKR | nM | 0.92 |
| MS-Roche #3.6H5×3.6L1 Fab (Fab, V domains shown, cross-cloned Fab) VH: QLVESGGGLVQPGGSLRLSCAASGFTFSSYAMSWVRQAPGKGLEWVSAISESGKTKYYADSVKGRFTISRDNSKNTLYLQMNSLRAEDTAVYYCARLTHYARYYRYFDVWGQGTLVTVSS VL: DIVLTQSPATLSLSPGERATLSCRASQFIQRFYLAWYQQKPGQAPRLLIYGASSRATGVPARFSGSGSGTDFTLTISSLEPEDFAVYYCQQTYNYPPTFGQGTKVEIKR | nM | 1.04 |
| MS-Roche #3.3H1×3.4L9 Fab (Fab, V domains shown, cross-cloned Fab) VH: QLVESGGGLVQPGGSLRLSCAASGFTFSSYAMSWVRQAPGKGLEWVSVISEKSRFIYYADSVKGRFTISRDNSKNTLYLQMNSLRAEDTAVYYCARLTHYARYYRYFDVWGQGTLVTVSS VL: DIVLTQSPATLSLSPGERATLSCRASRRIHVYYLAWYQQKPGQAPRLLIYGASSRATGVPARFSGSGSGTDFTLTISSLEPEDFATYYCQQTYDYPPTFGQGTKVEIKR | nM | 2.97 |
| MS-Roche #7.2H2×7.2L1 Fab (Fab, V domains shown, cross-cloned Fab) VH: QLVESGGGLVQPGGSLRLSCAASGFTFSSYAMSWVRQAPGKGLEWVSAINGTGMKKYYADSVKGRFTISRDNSKNTLYLQMNSLRAEDTAVYYCARGKGNTHKPYGYVRYFDVWGQGTLVTVSS VL: DIVLTQSPATLSLSPGERATLSCRASQYVDRTYLAWYQQKPGQAPRLLIYGASSRATGVPARFSGSGSGTDFTLTISSLEPEDFATYYCQQIYSFPHTFGQGTKVEIKR | nM | 1.43 |
| MS-Roche #8.1H1×8.2L1 Fab (Fab, V domains shown, cross-cloned Fab) VH: QLVESGGGLVQPGGSLRLSCAASGFTFSSYAMSWVRQAPGKGLEWVSAISRSGSNIYYADSVKGRFTISRDNSKNTLYLQMNSLRAEDTAVYYCARLLSRGYNGYYHKFDVWGQGTLVTVSS VL: DIVLTQSPATLSLSPGERATLSCRASQRVSGRYLAWYQQKPGQAPRLLIYGASSRATGVPARFSGSGSGTDFTLTISSLEPEDFATYYCQQLSSYPPTFGQGTKVEIKR | nM | 1.6 |
| MS-Roche #3.6H5×3.6L2 Fab (Fab, V domains shown, cross-cloned Fab; VH entry starts at QLVESGG) VH: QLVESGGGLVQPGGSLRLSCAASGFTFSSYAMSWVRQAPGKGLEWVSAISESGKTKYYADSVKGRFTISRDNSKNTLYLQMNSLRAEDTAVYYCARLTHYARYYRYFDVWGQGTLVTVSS VL: DIVLTQSPATLSLSPGERATLSCRASQFLSRYYLAWYQQKPGQAPRLLIYGASSRATGVPARFSGSGSGTDFTLTISSLEPEDFAVYYCQQTYNYPPTFGQGTKVEIKR | nM | 0.84 |
| MS-Roche #7.9H2×7.12L2(L1+2) Fab (Fab, V domains shown, VL assembled from the legend's definition and cloning strategy 3) VH: QLVESGGGLVQPGGSLRLSCAASGFTFSSYAMSWVRQAPGKGLEWVSAINADGNRKYYADSVKGRFTISRDNSKNTLYLQMNSLRAEDTAVYYCARGKGNTHKPYGYVRYFDVWGQGTLVTVSS VL: DIVLTQSPATLSLSPGERATLSCRASQRFFYKYLAWYQQKPGQAPRLLISGSSNRATGVPARFSGSGSGTDFTLTISSLEPEDFATYYCLQIYNMPITFGQGTKVEIKR | nM | 0.4 |
| MS-Roche #7.11H1×7.2L1 Fab (Fab, V domains shown, cross-cloned Fab; VH entry starts at QLVESGG) VH: QLVESGGGLVQPGGSLRLSCAASGFTFSSYAMSWVRQAPGKGLEWVSGINAAGFRTYYADSVKGRFTISRDNSKNTLYLQMNSLRAEDTAVYYCARGKGNTHKPYGYVRYFDVWGQGTLVTVSS VL: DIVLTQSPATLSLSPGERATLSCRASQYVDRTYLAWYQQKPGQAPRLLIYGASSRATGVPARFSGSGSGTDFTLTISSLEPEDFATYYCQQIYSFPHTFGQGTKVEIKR | nM | 1.39 |
| MS-Roche #7.11H2×7.2L1(L1) Fab (Fab, V domains shown) VH: QLVESGGGLVQPGGSLRLSCAASGFTFSSYAMSWVRQAPGKGLEWVSAINANGYKKYYADSVKGRFTISRDNSKNTLYLQMNSLRAEDTAVYYCARGKGNTHKPYGYVRYFDVWGQGTLVTVSS VL: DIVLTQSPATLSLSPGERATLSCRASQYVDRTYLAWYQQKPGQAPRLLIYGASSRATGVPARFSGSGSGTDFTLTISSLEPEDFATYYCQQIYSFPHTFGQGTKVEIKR | nM | 0.6 |
